Reference for the values: patent US20120020915A1

Below, each entry is listed alongside its reported IC50.
- assay-system: HO-1 (rat spleen) (Rattus norvegicus, UniProt P06762)
- Construct: Spleen microsomes were used as a source of HO-1; from tissue; host or cells: spleen microsomal fraction of adult male Sprague-Dawley rats
- Sequence (P06762 whole entry): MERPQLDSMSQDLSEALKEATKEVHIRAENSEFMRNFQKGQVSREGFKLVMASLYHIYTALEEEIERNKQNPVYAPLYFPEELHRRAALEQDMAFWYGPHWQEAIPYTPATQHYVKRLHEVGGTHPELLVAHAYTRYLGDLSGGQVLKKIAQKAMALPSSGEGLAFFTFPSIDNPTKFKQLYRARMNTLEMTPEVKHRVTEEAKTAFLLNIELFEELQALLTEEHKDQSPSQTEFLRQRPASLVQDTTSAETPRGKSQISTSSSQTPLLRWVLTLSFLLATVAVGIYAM
- assay-text: HO enzymatic activity, rat spleen microsomal fraction (CO formation from methemalbumin)
- Format: biochemical
- run-conditions: CO formation from methemalbumin, mean ± SD of replicate experiments, read-out: IC50 HO-1 (rat spleen/μM)
- Protocol: Incubations for HO activity analysis were done under conditions for which the rate of CO formation (pmol CO×min^−1×mg protein^−1) was linear with respect to time and microsomal protein concentration. […] The values on the abscissa represent the decimal logarithm of the inhibitor's concentration (in μM), whereas the values of the activity on the ordinate are expressed as a percentage of the control experiments without inhibitor. […]
Structures can show the parent of a compound that is named as a salt.
All answers are understood in µM, so give the number only.

-- ask Looking for the measured IC50 of COc1ccc(OC[C@H]2CO[C@](CCc3ccc(Cl)cc3)(Cn3ccnc3)O2)cc1 [QC-8, hydrochloride] , can you help?
-- reply 28

Note: attention shifts to another entry.
-- ask Looking for the measured IC50 of O=C(CCc1ccccc1)Cn1cnc(-c2ccccc2)c1 [QC-124, hydrochloride] , can you help?
-- reply 9
